The reported numbers originate from patent US11337964B2.

Examples of compounds with documented F follow.
test: PK parameter test in SD rats; type: in vivo, Sprague-Dawley rats; conditions: male SD rats, po 10 mg/kg vs iv 3 mg/kg
measure: F

1. CCOc1nc([C@@H](CS(C)(=O)=O)N2C(=O)c3cccc(NC(C)=O)c3C2=O)ccc1OC :: 15.5
2. [2H]C([2H])([2H])Oc1ccc([C@@H](CS(C)(=O)=O)N2C(=O)c3c(F)ccc(NC(C)=O)c3C2=O)cc1OCC :: 98.2
3. [2H]C([2H])([2H])Oc1ccc([C@@H](CS(C)(=O)=O)N2C(=O)c3cc(F)cc(NC(C)=O)c3C2=O)cc1OCC :: 7.4

###

assay: PK parameter test in SD rats; type: in vivo, Sprague-Dawley rats; details: Sprague-Dawley, rat, po; male SD rats, intragastrical administration 10 mg/kg, plasma; read-out: T1/2(po) (converted)
measure: log10 of half-life (log10 of the value in h)

1) [2H]C([2H])([2H])Oc1ccc([C@@H](CS(C)(=O)=O)N2C(=O)c3c(F)ccc(NC(C)=O)c3C2=O)cc1OCC :: 0.58
2) CCOc1nc([C@@H](CS(C)(=O)=O)N2C(=O)c3c(F)ccc(NC(C)=O)c3C2=O)ccc1OC :: 0.97
3) CCOc1nc([C@@H](CS(C)(=O)=O)N2C(=O)c3cc(F)cc(NC(C)=O)c3C2=O)ccc1OC :: 0.62
4) [2H]C([2H])([2H])Oc1ccc([C@@H](CS(C)(=O)=O)N2C(=O)c3cc(F)cc(NC(C)=O)c3C2=O)cc1OCC :: -0.06
5) CCOc1nc([C@@H](CS(C)(=O)=O)N2C(=O)c3cccc(NC(C)=O)c3C2=O)ccc1OC :: 0.81
6) CCOc1cc([C@@H](CS(C)(=O)=O)N2C(=O)c3cccc(NC(C)=O)c3C2=O)ccc1OC [Reference compound 2, reference compound] :: -0.03

###

experiment: PK parameter test in SD rats; type: in vivo, Sprague-Dawley rats; settings: Sprague-Dawley, rat, po; male SD rats, intragastrical administration 10 mg/kg, plasma; read-out: AUC(po)
measure: AUC

1. [2H]C([2H])([2H])Oc1ccc([C@@H](CS(C)(=O)=O)N2C(=O)c3cc(F)cc(NC(C)=O)c3C2=O)cc1OCC [Compound 203] :: 250 ng·h/mL
2. CCOc1cc([C@@H](CS(C)(=O)=O)N2C(=O)c3cccc(NC(C)=O)c3C2=O)ccc1OC [Reference compound 2, reference compound] :: 785 ng·h/mL
3. CCOc1nc([C@@H](CS(C)(=O)=O)N2C(=O)c3c(F)ccc(NC(C)=O)c3C2=O)ccc1OC [Compound 705] :: 3590 ng·h/mL
4. [2H]C([2H])([2H])Oc1ccc([C@@H](CS(C)(=O)=O)N2C(=O)c3c(F)ccc(NC(C)=O)c3C2=O)cc1OCC [Compound 103] :: 4120 ng·h/mL
5. CCOc1nc([C@@H](CS(C)(=O)=O)N2C(=O)c3cc(F)cc(NC(C)=O)c3C2=O)ccc1OC [Compound 708] :: 51 ng·h/mL
6. CCOc1nc([C@@H](CS(C)(=O)=O)N2C(=O)c3cccc(NC(C)=O)c3C2=O)ccc1OC [Compound 702] :: 1050 ng·h/mL
